Data credit: ChEMBL document CHEMBL4689842

System: U2OS
Assay: Multiplex assay against U2OS
Format: toxicity, cell-based
Conditions: human, 48 h, 10 µM, compound concentration 10 uM, replicate 2
Classify on Population Normal (%) using b0 = under 80%, b1 = from 80% up to 90%, b2 = 90% and over

Inquiry: # bin label for "Cc1[nH]c(/C=C2\C(=O)Nc3ccc(S(=O)(=O)N(C)c4cccc(Cl)c4)cc32)c(C)c1C(=O)N1CCN(C)CC1"
Reply text: b1

Inquiry: # bin label for Cl.N#Cc1ccc2[nH]cc(CCCCN3CCN(c4ccc5oc(C(N)=O)cc5c4)CC3)c2c1 [VILAZODONE HYDROCHLORIDE]
Reply text: b0

Inquiry: # bin label for CN1CCN(CCOc2cc(OC3CCOCC3)c3c(Nc4c(Cl)ccc5c4OCO5)ncnc3c2)CC1 [SARACATINIB]
Reply text: b1

Inquiry: # bin label for "CNc1nc(NCc2ccc(NS(C)(=O)=O)cc2Cl)cc(-c2ccccn2)n1"
Reply text: b1

Inquiry: # bin label for CN(C)C(=O)N[C@H]1CC[C@H](CCN2CCN(c3cccc(Cl)c3Cl)CC2)CC1.Cl [CARIPRAZINE HYDROCHLORIDE]
Reply text: b2

Inquiry: # bin label for "CN(C)C(=O)/C(C#N)=C/c1ccc(-c2nc3cnc4[nH]ccc4c3n2C2CCCCC2)o1"
Reply text: b0

Inquiry: # bin label for Cc1c(-c2ccc(O)cc2)n(Cc2ccc(OCCN3CCCCCC3)cc2)c2ccc(O)cc12 [BAZEDOXIFENE]
Reply text: b0

Inquiry: # bin label for c1cn2cc(-c3ccc4cn[nH]c4c3)nc(Nc3ccc(N4CCOCC4)cc3)c2n1 [ENTOSPLETINIB]
Reply text: b0

Inquiry: # bin label for COc1cccc([C@@H](C)NCCCc2ccccc2Cl)c1.Cl [TECALCET HYDROCHLORIDE]
Reply text: b2

----------
Test system: HEK-293T
Assay: Multiplex assay against HEK293T
Format: toxicity, cell-based
Conditions: human, 48 h, 1 µM, compound concentration 1 uM, replicate 2
Kind request: treat 7% as inclusive, so Population Fragmented Nuclei (%) at 7% or higher is T, anything lower is F.

Inquiry: Is Population Fragmented Nuclei (%) for "Cn1cc(-c2[nH]c3cc(NC(=O)[C@H](N)C4CCCCC4)cc4c3c2C=NNC4=O)cn1" at or above 7%?
Reply text: T

Inquiry: Is Population Fragmented Nuclei (%) for "Cc1csc2c(N[C@@H](C)CN3CCN(S(=O)(=O)c4ccc(Cl)c(Cl)c4)CC3)ncnc12" at or above 7%?
Reply text: T

Inquiry: Is Population Fragmented Nuclei (%) for CN1CCN(CCOc2cc(OC3CCOCC3)c3c(Nc4c(Cl)ccc5c4OCO5)ncnc3c2)CC1 [SARACATINIB] at or above 7%?
Reply text: F

Inquiry: Is Population Fragmented Nuclei (%) for Cc1c(-c2ccc(O)cc2)n(Cc2ccc(OCCN3CCCCCC3)cc2)c2ccc(O)cc12 [BAZEDOXIFENE] at or above 7%?
Reply text: F

Inquiry: Is Population Fragmented Nuclei (%) for Cl.N#Cc1ccc2[nH]cc(CCCCN3CCN(c4ccc5oc(C(N)=O)cc5c4)CC3)c2c1 [VILAZODONE HYDROCHLORIDE] at or above 7%?
Reply text: T

Inquiry: Is Population Fragmented Nuclei (%) for CN1CCC[C@@H]1CCO[C@](C)(c1ccccc1)c1ccc(Cl)cc1.O=C(O)/C=C/C(=O)O [CLEMASTINE FUMARATE] at or above 7%?
Reply text: F

Inquiry: Is Population Fragmented Nuclei (%) for CC[C@H](C)C(=O)O[C@H]1C[C@@H](C)C=C2C=C[C@H](C)[C@H](CC[C@@H]3C[C@@H](O)CC(=O)O3)[C@H]21 [LOVASTATIN] at or above 7%?
Reply text: F

Inquiry: Is Population Fragmented Nuclei (%) for c1cn2cc(-c3ccc4cn[nH]c4c3)nc(Nc3ccc(N4CCOCC4)cc3)c2n1 [ENTOSPLETINIB] at or above 7%?
Reply text: F

Inquiry: Is Population Fragmented Nuclei (%) for "C=CC(=O)Nc1ccc2ncnc(Nc3ccc(OCc4cccc(F)c4)c(Cl)c3)c2c1.Cc1ccc(S(=O)(=O)O)cc1" at or above 7%?
Reply text: F

Inquiry: Is Population Fragmented Nuclei (%) for CN(C)C(=O)N[C@H]1CC[C@H](CCN2CCN(c3cccc(Cl)c3Cl)CC2)CC1.Cl [CARIPRAZINE HYDROCHLORIDE] at or above 7%?
Reply text: F

Inquiry: Is Population Fragmented Nuclei (%) for "CC(C)(O)CNc1ncc(-c2ccnc(Nc3ccnc(Cl)c3)n2)c(CC2CC2)n1" at or above 7%?
Reply text: F

----------
Test system: U2OS
Assay: Multiplex assay against U2OS
Type: toxicity, cell-based
Settings: human, 12 h, 10 µM, compound concentration 10 uM, replicate 2
observable: Population Tubulin-Different-Phenotype (%)
Numeric answer only, unit % assumed.

// Population Tubulin-Different-Phenotype (%) value for CC(C)NCC(O)COc1ccc(CCOCC2CC2)cc1.Cl (stereo unspecified) [BETAXOLOL HYDROCHLORIDE] : 49

// Population Tubulin-Different-Phenotype (%) value for "CNc1nc(NCc2ccc(NS(C)(=O)=O)cc2Cl)cc(-c2ccccn2)n1" : 30

// Population Tubulin-Different-Phenotype (%) value for Cl.N#Cc1ccc2[nH]cc(CCCCN3CCN(c4ccc5oc(C(N)=O)cc5c4)CC3)c2c1 [VILAZODONE HYDROCHLORIDE] : 92

// Population Tubulin-Different-Phenotype (%) value for "CN(C)C(=O)/C(C#N)=C/c1ccc(-c2nc3cnc4[nH]ccc4c3n2C2CCCCC2)o1" : 70

// Population Tubulin-Different-Phenotype (%) value for "CC[C@H](C)C(=O)O[C@H]1C[C@@H](C)C=C2C=C[C@H](C)[C@H](CC[C@@H]3C[C@@H](O)CC(=O)O3)[C@H]21" : 20

// Population Tubulin-Different-Phenotype (%) value for "C=CC(=O)Nc1cccc(C(=O)Nc2ccc(Nc3cc(-c4[nH]c(SC)nc4C)ccn3)cc2)c1" : 12

// Population Tubulin-Different-Phenotype (%) value for "COc1cc2nccc(Oc3ccc(NC(=O)Nc4cc(C)on4)c(Cl)c3)c2cc1OC.O" : 97

// Population Tubulin-Different-Phenotype (%) value for "COc1ncc(-c2ccc3nccc(-c4ccnnc4)c3c2)cc1NS(=O)(=O)c1ccc(F)cc1F" : 22

// Population Tubulin-Different-Phenotype (%) value for O=C1NCN(c2ccccc2)C12CCN(CCCOc1ccc(F)cc1)CC2 [SPIRAMIDE] : 12

// Population Tubulin-Different-Phenotype (%) value for CN(C)C(=O)N[C@H]1CC[C@H](CCN2CCN(c3cccc(Cl)c3Cl)CC2)CC1.Cl [CARIPRAZINE HYDROCHLORIDE] : 95

// Population Tubulin-Different-Phenotype (%) value for "COc1cc(-n2cnc3cc(-c4ccc(Cl)cc4)sc3c2=O)ccc1OCCN1CCCC1" : 97

// Population Tubulin-Different-Phenotype (%) value for CN1CCC[C@@H]1CCO[C@](C)(c1ccccc1)c1ccc(Cl)cc1.O=C(O)/C=C/C(=O)O [CLEMASTINE FUMARATE] : 40

// Population Tubulin-Different-Phenotype (%) value for "c1cn2cc(-c3ccc4cn[nH]c4c3)nc(Nc3ccc(N4CCOCC4)cc3)c2n1" : 78

// Population Tubulin-Different-Phenotype (%) value for "CN(C)CC#Cc1ccc(OCCCc2sc(N3CCc4cccc(C(=O)Nc5nc6ccccc6s5)c4C3)nc2C(=O)O)c(F)c1" : 25

// Population Tubulin-Different-Phenotype (%) value for "Cc1nc(-c2cn3c(n2)-c2ccc(-c4cnn(C(C)(C)C(N)=O)c4)cc2OCC3)n(C(C)C)n1" : 12

// Population Tubulin-Different-Phenotype (%) value for C[C@@H](NCCCc1cccc(C(F)(F)F)c1)c1cccc2ccccc12.Cl [CINACALCET HYDROCHLORIDE] : 93

// Population Tubulin-Different-Phenotype (%) value for "OC1(c2ccc(Cl)cc2)CCN(Cc2c[nH]c3ccccc23)CC1" : 60

// Population Tubulin-Different-Phenotype (%) value for "Cc1cc(C)cc(-c2cnc3cc(Cl)c(-c4cccc(O)c4)cc3c2OCCCN)c1" : 100

// Population Tubulin-Different-Phenotype (%) value for "Cc1[nH]c(/C=C2\C(=O)Nc3ccc(S(=O)(=O)N(C)c4cccc(Cl)c4)cc32)c(C)c1C(=O)N1CCN(C)CC1" : 100

// Population Tubulin-Different-Phenotype (%) value for "Cc1nc(Nc2n[nH]c3c2CN(C(=O)N[C@H](CN(C)C)c2ccccc2)C3(C)C)c2sccc2n1" : 85

// Population Tubulin-Different-Phenotype (%) value for CN1CCCC(n2nc(Cc3ccc(Cl)cc3)c3ccccc3c2=O)CC1.Cl (stereo unspecified) [AZELASTINE HYDROCHLORIDE] : 100

// Population Tubulin-Different-Phenotype (%) value for "Cc1c(-c2ccc(O)cc2)n(Cc2ccc(OCCN3CCCCCC3)cc2)c2ccc(O)cc12" : 100

// Population Tubulin-Different-Phenotype (%) value for "CCN(CC)CCCCNc1ncc2cc(-c3cc(OC)cc(OC)c3)c(NC(=O)NC(C)(C)C)nc2n1" : 73

// Population Tubulin-Different-Phenotype (%) value for C=CC(=O)Nc1cc2c(Nc3ccc(F)c(Cl)c3)ncnc2cc1OCCCN1CCOCC1.Cl.Cl [CANERTINIB DIHYDROCHLORIDE] : 14

// Population Tubulin-Different-Phenotype (%) value for "Cn1cc(-c2[nH]c3cc(NC(=O)[C@H](N)C4CCCCC4)cc4c3c2C=NNC4=O)cn1" : 57

// Population Tubulin-Different-Phenotype (%) value for COc1cccc([C@@H](C)NCCCc2ccccc2Cl)c1.Cl [TECALCET HYDROCHLORIDE] : 96
